Experiment: Biodistribution, CHO-K1-GRPR + CHO-K1-PSMA dual xenograft mice
Conditions: female, NOD SCID, mouse, kidney, intravenous, 1.41 nmol, total radioactivity, Biodistribution: Kidney, Mouse #7; single tracer; dual xenograft; 24.2 h p.i.; 1.41 nmol
parameter: tissue uptake at 24.2 h (%ID/g)
Please give a number only; it is taken to be in %ID/g.

Incoming: Fill in the blank: the reported tissue uptake at 24.2 h of CC(C)C[C@H](NC(=O)C[C@H](O)[C@H](CC(C)C)NC(=O)[C@H](Cc1c[nH]cn1)NC(=O)CNC(=O)[C@@H](NC(=O)[C@H](C)NC(=O)[C@H](Cc1c[nH]c2ccccc12)NC(=O)[C@H](CCC(N)=O)NC(=O)[C@@H](Cc1ccccc1)NC(=O)CN1CCC(NC(=O)CN2CCN(CC(=O)O)CCN(CC(=O)O)CCN(CC(=O)O)CC2)CC1)C(C)C)C(N)=O [[^111In]In-RM2, metal not drawn] is ____.
Outgoing: 1.34
